test system: SF-295; assay: NCI tumour cell line growth inhibition, 48 h
Active and inactive are the calls of the source. Rule as the data show it: active = GI50 up to about 1.1 µM and inactive = higher.
measurementName: GI50

Example results:
C=CCc1ccccc1CC1(OCC)OC(=O)c2ccccc21 (stereo unspecified)	> 100 µM (inactive)
CSC1=Nc2ccccc2N=C(c2ccccc2)C1	> 100 µM (inactive)
CC(=O)Nc1ccc(S(=O)(=O)Nc2nnc(S(N)(=O)=O)s2)cc1	> 100 µM (inactive)

Input: State its GI50 for this molecule: "O=c1cc(C(F)(F)F)c2cc3c(cc2o1)NCCC3"
Output: 35 µM (inactive)

Input: Provide GI50 value for the following molecule: "O=C1Nc2nnc(S)n2NC12c1ccccc1-c1ccccc12"
Output: > 100 µM (inactive)

Input: Fill in GI50 for record "N#C/N=C(\N)NCCO"
Output: > 100 µM (inactive)

Input: Name the recorded GI50 of the item CC1=C2[C@H](c3ccccc3)C3C=CC2(c2ccccc23)N(C(=O)C(c2ccccc2)c2ccccc2)C1=O (stereo partly specified) in your answer.
Output: > 100 µM (inactive)

Input: Please supply the value of reported GI50 for the item "CCN(CC)CCCn1cnc2ncccc2c1=O"
Output: > 100 µM (inactive)

Input: Respond only with GI50 recorded for "CCOc1ccccc1/C=C1\NC(=O)N(/C=C2\C(=O)Oc3ccccc3C2=O)C1=O"
Output: 44.5 µM (inactive)

Input: # return recorded GI50 for entry "Cc1c(C(=O)/C=C/c2ccc(N(C)C)cc2)c(=O)n(-c2ccccc2)n1C"
Output: > 100 µM (inactive)

Input: Supply GI50 value. Item: "O=C(Nc1ccc(Cl)cc1Cl)c1cc2nc3ccccc3c(=O)n2c2ccccc12"
Output: > 10 µM (inactive)

----------
system: MDA-MB-435; test: NCI tumour cell line growth inhibition, 48 h
Active and inactive are the calls of the source. No stated cut-off is given here; in the data, active = GI50 up to about 1.1 µM and inactive = higher. Where a SMILES comes first, the peptide text is derived from it. [ ]: non-standard residue; d: D form. The star is where a group is joined. Phe(4-NO2) = N[CH](Cc1ccc([N+](=O)[O-])cc1)C(=O)O; Boc = CC(C)(C)OC(=O)*; OtBu = CC(C)(C)O*
Lab note: assign the record to one of active, inactive

COC(=O)CCCCC/C(=C\C(=O)C(Cl)(Cl)Cl)OC	inactive
COC(=O)C(Cc1ccc([N+](=O)[O-])cc1)NC(=O)C(CC(=O)OC(C)(C)C)NC(=O)OC(C)(C)C (centres undefined) (Boc-Asp(OtBu)-[Phe(4-NO2)]-OMe; configuration not given here)	inactive
Clc1ccc(-c2c(C3=NCCCN3)nnn2-c2ccc(Cl)cc2)cc1	inactive

Input: // param item: Cc1cn(C2CC(ON3C(=O)c4ccccc4C3=O)C(CO)O2)c(=O)[nH]c1=O (centres undefined) ; yields the recorded call
Output: inactive

Input: Hello, I am checking results. What call was entered for "CC(C)(C)OC(=O)Nc1nnc(S(N)(=O)=O)s1" ?
Output: inactive

Input: Kindly provide the recorded test outcome for the following compound: COC(=O)c1cc(C(=CCC[C@H]2CC[C@@]3(C)C(CCC4C3CC[C@@]3(C)C4CC[C@@H]3C(C)CCCC(C)C)C2)c2cc(Cl)c(O)c(C(=O)OC)c2)cc(Cl)c1O (some centres undefined)
Output: inactive

----------
test system: HT-29; experiment: NCI tumour cell line growth inhibition, 48 h
The source made the active and inactive calls. No stated cut-off is given here; in the data, active = GI50 up to about 1.1 µM and inactive = higher.
Lab note: assign the record to one of active, inactive

Illustrative cases are given below, each with its answer.
O=[N+]([O-])c1cccc(C2N3CCCCC3[C@@H]3c4[nH]c5ccccc5c4CCN23)c1 (stereo partly specified)	inactive
CNc1nc(=S)[nH]c2sc3c(c12)CCCC3	inactive
O=C1C2C=CC(C2)C(c2ccc(O)cc2)N1O (stereo unspecified)	inactive

Input: Which outcome did this test record for the molecule "O=C(/C=C1\Nc2ccccc2C(=O)N1c1ccc(Cl)cc1)c1ccncc1" ?
Output: inactive

Input: Answer briefly: the call reported for COc1cccc(C2CC(C)(N3CCCC3)Oc3cc4c(cc32)OCO4)c1O (stereo unspecified) in this assay.
Output: inactive

Input: Status in this test for CC(=O)N1C(C(=O)NNc2ccccc2)CSC1c1ccccc1 (stereo unspecified) ?
Output: inactive

Input: Record lookup: outcome of this test for CC(=O)C1C(=O)C(=O)N(c2cccc([N+](=O)[O-])c2)C1=O (stereo unspecified) ?
Output: inactive

Input: What did the test return for "[N-]=[N+]=Nc1c(-c2ccccc2)c(=O)n(-c2ccccc2)c2ccccc12" ?
Output: inactive

Input: Short answer needed: outcome of this test for "CCCCn1c(C)c2c(c1C)C(=O)N(CCN1CCN(c3ccccc3Cl)CC1)C2=O" ?
Output: inactive

Input: Hi team, can someone confirm the assay call for Nc1ncnc2c(C3OC(CO)C(O)C3O)scc12 (stereo unspecified) ?
Output: active

Input: GET /call?item= "CC1(C)N=C(N)N=C(N)N1c1cccc(OCc2cccc(N)c2)c1" returns the recorded outcome of this test.
Output: inactive

----------
system: SNB-75; assay: NCI tumour cell line growth inhibition, 48 h
Active and inactive are the calls of the source. Cut-off read from the data, not from the text of the source: active = GI50 up to about 1.1 µM and inactive = higher.
Hi! Could you answer with just one of these? yes (1) (active), no (0) (inactive)

# count of solved cases: 9
Cn1/c(=N\S(=O)(=O)c2ccccc2)[nH]c2ccccc21	no (0)
NC1=C(NC(=O)Cc2ccc(F)cc2)C(=O)c2ccccc2C1=O	no (0)
CCOC(=O)c1cnc2sc3ccc4ccccc4c3n2c1=O	no (0)
Cc1cnc2c(c1)C(=O)C1=C(OC(C)(C)CC1O)C2=O (stereo not given)	no (0)
CC(=O)OCCN1c2ccccc2Sc2cnccc21	no (0)
O=c1[nH]c(=O)n(CCOCP(=O)(O)O)nc1Br	no (0)
CCCCN1C(=O)c2c(-c3sccc3N)sc(-c3sccc3N)c2C1=O	no (0)
Cc1c(C(=O)CC(=O)C(=O)NC2C3CC4CC(C3)CC2C4)[n+]([O-])c2ccccc2[n+]1[O-] (stereo not given)	no (0)
O=C(c1ccccc1)c1ccc(N2C(=O)/C(=C/c3ccccc3S)N=C2c2ccccc2)c(N2C(=O)/C(=C/c3ccccc3S)N=C2c2ccccc2)c1	no (0)

Input: Assay result, entry Cc1cc(-c2cccc3ccccc23)c(C#N)c(=S)n1C1OC(CO)C(O)C(O)C1O (stereo not given) — outcome?
Output: yes (1)

----------
test system: SW-620; experiment: NCI tumour cell line growth inhibition, 48 h
Active and inactive are the calls of the source. No stated cut-off is given here; in the data, active = GI50 up to about 1.1 µM and inactive = higher.
// allowed return values: active, inactive

Please review the entries below; each comes with its answer.
Cc1nc(=O)[nH]c2s/c(=N/C3CCCCC3)n(C3CCCCC3)c(=O)c12	inactive
CCOC(=O)NC(Nc1ccc(OC(F)(F)F)cc1)(C(F)(F)F)C(F)(F)F	inactive
COc1ccc(C=C2C(C)=NN(c3cccc(Cl)c3)C23C(Cl)C(=O)N3c2nc3ccccc3s2)cc1 (configuration not stated)	inactive
C=CO/N=[N+](\[O-])N(CC)CC	inactive
COc1cc(/C=C/C(=O)c2cccc3ccccc23)cc(OC)c1OC	inactive
[N-]=[N+]=Nc1c(-c2ccccc2)c(=O)n(-c2ccccc2)c2ccccc12	inactive

Input: Recorded test outcome, item "Cc1nc(Nc2ccc(Cl)cc2)sc1C(=O)NNC(=O)C(=O)NN"
Output: inactive

Input: Write down the call the test reported for this molecule. Item: "N#C/N=C(\N)NCCO"
Output: inactive

Input: Can you look up the reported call for "CCCCCCCc1c(Cl)nc(Cl)nc1Cl" for me?
Output: inactive

Input: Lab log entry: Nc1nc(Cl)c(N)c(NCC2(CO)CC(O)C2)n1 (configuration not stated) — outcome as called in the assay?
Output: inactive

Input: Write down the call the test reported for this molecule. Item: "CC(C)(CN)SCc1ccccc1"
Output: inactive

Input: For this molecule, state the assay outcome: "CCCCN1C(=O)c2c(-c3sccc3N)sc(-c3sccc3N)c2C1=O"
Output: inactive

Input: I'd appreciate the recorded outcome for "CSc1nnnc2ccccc12" from this test.
Output: inactive

Input: Recorded call for "O=CNc1ccc(S(=O)(=O)c2ccc(NC=O)cc2)cc1" ?
Output: inactive

Input: Hello, I am checking results. What call was entered for "COc1ccc(/C=N/N=C(\N)NO)c(O)c1" ?
Output: inactive

Input: Please state the recorded outcome for this molecule: "O=[N+]([O-])c1cccc([N+](=O)[O-])c1S(=O)(=O)c1ccccc1"
Output: inactive

----------
test system: OVCAR-5; experiment: NCI tumour cell line growth inhibition, 48 h
Calls of active or inactive are those of the source. Rule as the data show it: active = GI50 up to about 1.1 µM and inactive = higher.
The categories you may choose from are 1 for active, 0 for inactive

C[n+]1ccc(/C2=C3\C=CC(=N3)/C(c3cc[n+](C)cc3)=c3/cc/c([nH]3)=C(\c3cc[n+](C)cc3)C3=N/C(=C(/c4cc[n+](C)cc4)C4C=CC2N4)C=C3)cc1	0

Input: Returns: the outcome recorded for "c1ccc(OCc2nnc3n2N=C(c2ccccc2)CS3)cc1" in this assay.
Output: 0

Input: What call does the record list for "Nc1ccccc1.O=P(O)(OP(=O)(O)c1ccccc1)c1ccccc1" ?
Output: 0

Input: Called result for "CSC(SC)=C(C(=O)O)P(=O)(O)O"
Output: 0

Input: Given COC(=O)c1cc(C(=CCC[C@H]2CC[C@@]3(C)C(CCC4C3CC[C@@]3(C)C4CC[C@@H]3C(C)CCCC(C)C)C2)c2cc(Cl)c(O)c(C(=O)OC)c2)cc(Cl)c1O (some centres undefined) , state the outcome it received in this test.
Output: 0

Input: Assay outcome for COC1/C=C/C(C)C(C(C)C(OC)C(C)CCC(=O)C(C)C(CC(=O)O)OC)OC(=O)/C=C/C=C(\C)CC(OC)C(OC)C2=CC(=O)O[C@@H](C(C)C(OC)CC(OC)/C=C/C(C)C(O)C1)[C@H]2O (some centres undefined) : what was it?
Output: 1

Input: // param item: "Cc1ccnc(Nc2[nH]c(C(=O)c3ccc(Cl)cc3)c(N)c2C(=S)Nc2ccccc2)c1" ; yields the recorded call
Output: 0

Input: For this compound, state the assay outcome: "Cc1cn(S(=O)(=O)c2ccccc2)c2c(OCc3ccccc3)cc(NS(C)(=O)=O)cc12"
Output: 0

Input: What is the recorded call for this compound in the test? CC(C)C(NCc1c2ccccc2nc2ccccc12)C(=O)O (centres undefined)
Output: 0

Input: Outcome logged for "CC(C)(c1ccc(OC#N)cc1)c1ccc(OC#N)cc1" in this assay:
Output: 0

Input: Look up the recorded call for Cc1cn(C2CC(ON3C(=O)c4ccccc4C3=O)C(CO)O2)c(=O)[nH]c1=O (centres undefined) in this test.
Output: 0

Input: Returns: the outcome recorded for CCCCCCCCCCCCCC(=O)O[C@H]1CC[C@H](NC(=O)[C@H](OC)[C@H](O)[C@@H](O)[C@H](O)/C=C/C(C)C)C(=O)NC1 [BENGAMIDE A] in this assay.
Output: 0

Input: For COc1ccc([C@@]23Oc4cc(OC)cc(OC)c4[C@]2(O)[C@H](O)[C@H](C(N)=O)[C@H]3c2ccccc2)cc1 [DIDESMETHYLROCAGLAMIDE] , what call appears in the results of this test?
Output: 1

Input: Identify the outcome logged in this assay for the compound shown: Cc1cnc2c(c1)C(=O)C1=C(OC(C)(C)CC1O)C2=O (centres undefined)
Output: 0

Input: // outcome(item) with item = "O=C(/C=C1\Nc2ccccc2C(=O)N1c1ccc(Cl)cc1)c1ccncc1"
Output: 0

Input: Hi team, can someone confirm the assay call for "CC(=O)n1nc(-c2ccccc2)n(/N=C/c2ccc([N+](=O)[O-])cc2)c1=O" ?
Output: 0

Input: Please state the recorded outcome for this compound: "CSc1nc(SC)c2c(CO)c(Br)n(Cc3ccccc3)c2n1"
Output: 0

Input: For "C=CCNc1nc2c(N)ncnc2s1" , what call appears in the results of this test?
Output: 0

Input: For "CC1(C)OC(=O)C(C#N)=C1C[n+]1ccccc1" , which call appears in the assay record?
Output: 0

Input: Assay result, entry CC(=O)N1C(C(=O)NNc2ccccc2)CSC1c1ccccc1 (centres undefined) — outcome?
Output: 0

Input: What did the test return for "CCOC(=O)NC(C(F)(F)F)(C(F)(F)F)P(=O)(OCC)OCC" ?
Output: 0

Input: Could you please tell me the result logged for O=C1CCC(=O)C(C(=O)CCC(=O)Nc2ccc(Cl)cc2)C1 (centres undefined) in this assay?
Output: 0

Input: Test call, this compound: "COC(=O)CCC1(O)C=CC(=O)C=C1"
Output: 0
